Procedure Text: in vivo
Condition Notes: male, Sprague-Dawley, rat, plasma, oral, 4 mEq/kg
Recorded Endpoint: concentration at 72 h

- O=C([O-])c1ccccc1O.[Li+] [Lithium Salicylate, lithium salicylate]: ~250 ng/mL

* * *

Procedure Text: in vivo
Condition Notes: male, Sprague-Dawley, rat, brain, oral, 4 mEq/kg
Recorded Endpoint: concentration at 72 h (µg/mL)

• O=C([O-])c1ccccc1O.[Li+] [Lithium Salicylate, lithium salicylate] = 2

* * *

Procedure Text: in vivo
Condition Notes: male, Sprague-Dawley, rat, brain, oral, 4 mEq/kg
Recorded Endpoint: concentration at 24 h

- O=C([O-])c1ccccc1O.[Li+] [Lithium Salicylate, lithium salicylate]: ~2500 ng/mL
